system: NCI-H23; assay: NCI tumour cell line growth inhibition, 48 h
Active and inactive are the calls of the source. Cut-off read from the data, not from the text of the source: active = GI50 up to about 1.1 µM and inactive = higher.
Answer with one of the outcomes 1 = active, 0 = inactive

Example entries and their recorded answers appear below.
CC(=O)OCC1OC(Sc2ccccn2)C=CC1OC(C)=O (stereo unspecified): 0
COc1cc(N(C)C)ccc1C=c1c2ccccc2n2c1cc(-c1ccccc1)[n+]2C: 1

Record lookup: outcome of this test for "CNC(=S)N/N=C(\C)c1cc(OC)ccc1O" ?
0

Record lookup: outcome of this test for "O=C1SC(c2ccc(Cl)cc2)(c2ccc(Cl)cc2)c2ccccc21" ?
0

Record lookup: outcome of this test for "O=NN(CCCl)C(=O)N[C@H]1CC[C@H](C(=O)O)CC1" ?
0

Record lookup: outcome of this test for O=C1OC(c2ccccc2)N/C1=C\c1ccc2c(c1)OCO2 (stereo unspecified) ?
0

Values from ChEMBL document CHEMBL1201862
